System: Plasmodium falciparum
TEST: GSK_TCMDC: Inhibition of Plasmodium falciparum Dd2 in whole red blood cells, using parasite LDH activity as an index of growth. Test compounds present at 2uM
Format: functional
RECORDED METRIC: Inhibition (%)
One number for each entry, in %.

Solved cases below.
{"COMPOUND": "CC(C)N1CCN(c2ccc(OCCCCN3CCN(c4cccc(Cl)c4Cl)CC3)c(C(F)(F)F)c2)CC1.Cl", "Inhibition (%)": 28}
{"COMPOUND": "O=C(NC(=S)NCc1ccncc1)c1ccccc1", "Inhibition (%)": 0}
{"COMPOUND": "c1cncc(Oc2ccc(Nc3ccnc4cc(-c5cccc(CNCCN6CCOCC6)c5)ccc34)cc2)c1", "Inhibition (%)": 99}

Give Inhibition for each listed item.
1. COc1ccc(-c2cc(C(F)(F)F)n3ncc(C(=O)Nc4cc(C)ccc4O)c3n2)cc1OC
2. Cc1sc2ncnc(Sc3nnc(N)s3)c2c1C
3. O=C(/C=C/c1ccc(Cl)c(Cl)c1)NCCCCCN1CCC(CCCNC(=O)Nc2ccc(C(F)(F)F)cc2)CC1
4. COc1ccccc1CN1CCC(CNC(=O)c2cc(-c3ccc(N(C)C)cc3)cs2)C1.O=C(O)C(F)(F)F (centres undefined)
5. Cc1[nH]c(C)c(-c2ccc(CCc3ccc(C(F)(F)F)cc3)nc2)c(=O)c1Cl
6. Cc1[nH]c(C)c(-c2cccc(-c3ccc(OC(F)(F)F)cc3)c2)c(=O)c1Br
7. CCOc1ccc2nc(NC(=O)c3csnn3)sc2c1
8. CNC(=O)c1ccccc1Nc1nc(Nc2ccc(N3CCN(C)CC3)nc2)ncc1C.Cl

A.
1: 100; 2: 100; 3: 19; 4: 16; 5: 97; 6: 96; 7: 98; 8: 50
